Recorded AC50 by entry
system-name: Cytochrome P450 3A4 (Homo sapiens, UniProt P08684);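 further: CYP3A4 tested as one member of a cytochrome P450 panel screen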
Sequence (P08684 whole entry): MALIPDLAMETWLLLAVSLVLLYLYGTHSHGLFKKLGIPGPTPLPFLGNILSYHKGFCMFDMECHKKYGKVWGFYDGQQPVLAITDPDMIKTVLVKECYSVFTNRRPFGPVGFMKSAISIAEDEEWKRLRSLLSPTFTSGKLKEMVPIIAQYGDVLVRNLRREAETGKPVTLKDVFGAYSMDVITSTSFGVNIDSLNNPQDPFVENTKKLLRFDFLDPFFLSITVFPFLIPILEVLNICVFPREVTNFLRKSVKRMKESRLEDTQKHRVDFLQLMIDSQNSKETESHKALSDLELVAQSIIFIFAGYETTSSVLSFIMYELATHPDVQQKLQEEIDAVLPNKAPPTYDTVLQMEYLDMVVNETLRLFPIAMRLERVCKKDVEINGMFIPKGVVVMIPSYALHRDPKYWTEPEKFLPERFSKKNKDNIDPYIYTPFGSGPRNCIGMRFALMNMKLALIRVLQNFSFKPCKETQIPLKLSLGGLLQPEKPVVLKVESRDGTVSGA
reported-property: AC50

{"compound": "CCn1c(=N)c(S(=O)(=O)c2ccc(F)cc2)cc2c(=O)n3ccccc3nc21", "system-name": "Cytochrome P450 3A4 (Homo sapiens, UniProt P08684)", "reported-property": "AC50", "value": "10 µM (inconclusive)"}
{"compound": "O=C1C=C(Nc2ccc(Cl)cc2)CC(c2ccc(Cl)cc2)C1 (stereo not drawn)", "system-name": "Cytochrome P450 3A4 (Homo sapiens, UniProt P08684)", "reported-property": "AC50", "value": "20 µM (inconclusive)"}
{"compound": "COc1ccc(CCn2c3c(c(=O)[nH]c2=O)C(NC(=O)c2cccs2)(C(F)(F)F)C(=O)N3)cc1OC (stereo not drawn)", "system-name": "Cytochrome P450 3A4 (Homo sapiens, UniProt P08684)", "reported-property": "AC50", "value": "14.1 µM (inconclusive)"}

###

Recorded AC50 by entry
test-summary: HepG2 cell cytotoxicity, dose response, cytotoxicity control for Shn3 inhibitor project, CellTiter-Glo, cherry-picked (AID 624134)
Format: functional, cell-based
Activity calls are given as the source filed them.
reported-property: AC50

{"mol": "CCn1/c(=N\\C(=O)CCS(=O)(=O)c2ccccc2)sc2cccc(OC)c21", "value": "> 70 µM (inactive)"}
{"mol": "COc1ccc(C2=Nn3c([n+](C)c4ccccc43)SC2)cc1", "value": "> 70 µM (inactive)"}
{"mol": "COc1ccc(-c2nc(-c3ccccn3)no2)cc1", "value": "7.01 µM (active)"}
{"mol": "O=C(NNC(=O)c1cccnc1SCc1cccc([N+](=O)[O-])c1)c1ccccn1", "value": "7.84 µM (active)"}

###

Recorded below: AC50, system Cytochrome P450 1A2 (Homo sapiens, UniProt P05177).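 Further: PubChem cytochrome P450 panel assay, CYP1A2 panel member.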
Where a name gives a salt, the structure may show the parent alone.
reported-property: AC50

{"molecule": "CCNc1ncc2nc(-c3ccc(F)cc3)c(=O)n(-c3ccc(OC)cc3)c2n1", "reported-property": "AC50", "value": "6.31 µM (inconclusive)"}
{"molecule": "O=c1c(CCc2ccccc2)nc2cnc(N3CCOCC3)nc2n1Cc1ccc(F)cc1", "reported-property": "AC50", "value": "10 µM (inconclusive)"}
{"molecule": "COc1ccc(CCNC(=O)Cn2cnc3c2c(=O)n(C)c(=O)n3C)cc1OC", "reported-property": "AC50", "value": "3.16 µM (inconclusive)"}
{"molecule": "N=C(N)NC(=O)c1nc(Cl)c(N)nc1N [AMILORIDE HYDROCHLORIDE]", "reported-property": "AC50", "value": "6.31 µM (inconclusive)"}
{"molecule": "O[C@@H](c1cc(-c2ccccc2)nc2c1ccc1ccccc12)[C@@H]1CCCCN1", "reported-property": "AC50", "value": "5.01 µM (inconclusive)"}
{"molecule": "COc1ccc(C(CNC(=O)c2cc(O)nc3ccccc23)N2CCCC2)cc1 (stereo not given)", "reported-property": "AC50", "value": "20 µM (inconclusive)"}
{"molecule": "C/C(=N\\NC(=O)c1ccccc1C)c1ccc(NC(=O)c2cccs2)cc1", "reported-property": "AC50", "value": "22.4 µM (inconclusive)"}
{"molecule": "CNCCC=C1c2ccccc2CCc2ccccc21 [NORTRIPTYLINE]", "reported-property": "AC50", "value": "25.1 µM (inconclusive)"}
{"molecule": "O=C(Nn1cc(C(=O)N2CCN(c3ccccc3F)CC2)c2ccccc2c1=O)c1cnccn1", "reported-property": "AC50", "value": "12.6 µM (inconclusive)"}
{"molecule": "CCC(C)NC(=O)Cn1cnc2sc(C)cc2c1=O (stereo not given)", "reported-property": "AC50", "value": "6.31 µM (inconclusive)"}

###

system-name: Tyrosine-protein phosphatase non-receptor type 22 (Homo sapiens, UniProt Q9Y2R2);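 further: confirmatory dose-response retest of primary uHTS hits for inhibition of LYP phosphatase, measured by a fluorescence intensity read-out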
Sequence (Q9Y2R2 whole entry): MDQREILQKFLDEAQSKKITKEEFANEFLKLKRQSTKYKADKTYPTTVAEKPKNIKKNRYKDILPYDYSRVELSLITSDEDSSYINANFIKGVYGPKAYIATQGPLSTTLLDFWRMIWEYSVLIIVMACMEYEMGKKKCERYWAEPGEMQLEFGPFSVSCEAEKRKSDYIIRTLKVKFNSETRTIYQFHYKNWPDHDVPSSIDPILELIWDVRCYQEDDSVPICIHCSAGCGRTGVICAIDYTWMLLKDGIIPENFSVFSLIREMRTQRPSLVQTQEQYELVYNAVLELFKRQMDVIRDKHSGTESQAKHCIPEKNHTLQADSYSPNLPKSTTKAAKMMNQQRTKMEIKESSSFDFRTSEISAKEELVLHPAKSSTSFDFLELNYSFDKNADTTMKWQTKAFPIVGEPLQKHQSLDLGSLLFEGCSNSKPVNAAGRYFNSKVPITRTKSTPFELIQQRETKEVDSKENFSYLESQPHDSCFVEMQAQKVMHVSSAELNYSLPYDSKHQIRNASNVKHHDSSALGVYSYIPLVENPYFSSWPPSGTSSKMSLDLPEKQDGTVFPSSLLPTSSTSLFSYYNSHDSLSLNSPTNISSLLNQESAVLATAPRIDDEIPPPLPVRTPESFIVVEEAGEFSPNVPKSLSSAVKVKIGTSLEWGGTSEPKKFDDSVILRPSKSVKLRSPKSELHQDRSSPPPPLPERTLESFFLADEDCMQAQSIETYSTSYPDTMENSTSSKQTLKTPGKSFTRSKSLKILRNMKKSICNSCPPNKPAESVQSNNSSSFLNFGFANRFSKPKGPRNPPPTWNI
Assay type: functional
Active and inactive are the calls of the source.
reported-property: IC50

{"mol": "CC(C)CCNC(=O)c1ccc2c(Cl)c3c(nc2c1)CCC3", "reported-property": "IC50", "value": "> 79.4 µM (inactive)"}
{"mol": "O=C(Cc1cccs1)N1CCN(c2ccc([N+](=O)[O-])cc2)CC1", "reported-property": "IC50", "value": "> 79.4 µM (inactive)"}
{"mol": "CCOc1ccccc1-c1cc(C(=O)N/N=C/c2ccc(O)c(OC)c2)c2ccccc2n1", "reported-property": "IC50", "value": "> 79.4 µM (inactive)"}
{"mol": "COc1ccccc1N1CCN(C(=O)C2CCN(C(=O)c3ccccc3Cl)CC2)CC1", "reported-property": "IC50", "value": "> 79.4 µM (inactive)"}

###

system-name: Kappa-type opioid receptor (Homo sapiens)
Sequence (P41145 whole entry): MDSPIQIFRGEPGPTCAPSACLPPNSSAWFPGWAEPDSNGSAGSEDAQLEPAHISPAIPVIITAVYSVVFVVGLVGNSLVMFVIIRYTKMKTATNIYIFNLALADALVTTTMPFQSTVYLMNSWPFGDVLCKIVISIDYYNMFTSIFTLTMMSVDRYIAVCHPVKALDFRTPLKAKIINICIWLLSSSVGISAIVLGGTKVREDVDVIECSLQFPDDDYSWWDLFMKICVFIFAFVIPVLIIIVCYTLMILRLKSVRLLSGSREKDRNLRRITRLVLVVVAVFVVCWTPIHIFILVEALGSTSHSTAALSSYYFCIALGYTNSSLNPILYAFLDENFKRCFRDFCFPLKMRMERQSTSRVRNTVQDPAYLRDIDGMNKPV
Format: functional
pIC50: −log10 of the molar value.
Recorded pIC50 by entry
reported-property: pIC50

{"mol": "O=C(Sc1cccc2cccnc12)c1ccccc1Br", "reported-property": "pIC50", "sign-qualifier": "<", "value": 4.49}
{"mol": "O=[N+]([O-])c1c(Nc2ccccc2O)cc(Cl)c2nonc12", "reported-property": "pIC50", "sign-qualifier": "=", "value": 4.94}

###

system-name: Short transient receptor potential channel 4 (Mus musculus, UniProt Q9QUQ5)
Sequence (Q9QUQ5 whole entry): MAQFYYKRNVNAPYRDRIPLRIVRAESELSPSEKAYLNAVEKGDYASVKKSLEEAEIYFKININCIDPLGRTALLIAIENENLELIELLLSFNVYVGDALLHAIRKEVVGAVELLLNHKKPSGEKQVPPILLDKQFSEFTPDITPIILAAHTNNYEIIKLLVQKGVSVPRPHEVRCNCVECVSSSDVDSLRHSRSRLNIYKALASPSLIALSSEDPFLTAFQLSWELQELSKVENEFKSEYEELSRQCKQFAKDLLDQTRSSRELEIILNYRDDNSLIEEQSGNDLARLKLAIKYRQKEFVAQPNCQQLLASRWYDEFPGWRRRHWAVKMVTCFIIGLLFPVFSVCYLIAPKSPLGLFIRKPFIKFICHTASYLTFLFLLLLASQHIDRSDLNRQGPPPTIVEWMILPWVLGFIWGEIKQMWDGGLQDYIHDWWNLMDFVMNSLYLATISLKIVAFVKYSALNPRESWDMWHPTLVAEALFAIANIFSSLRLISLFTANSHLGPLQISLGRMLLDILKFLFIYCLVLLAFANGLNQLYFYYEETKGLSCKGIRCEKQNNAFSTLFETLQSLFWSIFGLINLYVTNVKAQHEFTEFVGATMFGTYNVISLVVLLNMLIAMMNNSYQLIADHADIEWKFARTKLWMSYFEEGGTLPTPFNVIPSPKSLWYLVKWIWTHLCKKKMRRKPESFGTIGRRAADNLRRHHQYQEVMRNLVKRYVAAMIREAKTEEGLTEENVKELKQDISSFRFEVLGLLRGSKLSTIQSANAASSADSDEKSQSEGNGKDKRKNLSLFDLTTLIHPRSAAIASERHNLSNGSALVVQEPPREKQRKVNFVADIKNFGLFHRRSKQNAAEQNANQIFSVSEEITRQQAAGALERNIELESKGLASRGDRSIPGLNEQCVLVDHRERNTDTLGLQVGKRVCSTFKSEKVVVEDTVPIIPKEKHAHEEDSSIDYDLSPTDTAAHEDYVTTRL
test-summary: mouse TRPC4 channel activators, dose response, cell-based, HEK293 TRPC4/mu-opioid, Fluo-4 calcium (AID 434937)
Assay type: functional
Activity calls are given as the source filed them.

{"molecule": "COc1ccc(C(=O)NC(=S)NNC(=O)c2c(-c3ccccc3)noc2C)cc1", "EC50": "3760 nM (active)"}
{"molecule": "S=C(NCCc1c[nH]cn1)NC1CCCC1", "EC50": "84 nM (active)"}
{"molecule": "CCOC(=O)C1(CCc2ccccc2)CCN(Cc2c(O)cccc2OC)CC1", "EC50": "299 nM (active)"}
{"molecule": "COc1ccc(-c2nc(CN3CCC(C(=O)NC4CCCC4)CC3)c(C)o2)cc1OC", "EC50": "473 nM (active)"}
{"molecule": "c1ccc2oc(N3CCNCC3)nc2c1", "EC50": "668 nM (active)"}
{"molecule": "CCCCc1cc(O)c(CCCC)c(O)c1", "EC50": "473 nM (active)"}
{"molecule": "Cc1ccc(C2N(c3ccc(Cl)c(Cl)c3)C(=O)C3CCCN32)o1 (configuration not stated)", "EC50": "4220 nM (active)"}

###

system-name: Streptokinase A (Streptococcus pyogenes serotype M1, UniProt P10520)
Sequence (P10520 whole entry): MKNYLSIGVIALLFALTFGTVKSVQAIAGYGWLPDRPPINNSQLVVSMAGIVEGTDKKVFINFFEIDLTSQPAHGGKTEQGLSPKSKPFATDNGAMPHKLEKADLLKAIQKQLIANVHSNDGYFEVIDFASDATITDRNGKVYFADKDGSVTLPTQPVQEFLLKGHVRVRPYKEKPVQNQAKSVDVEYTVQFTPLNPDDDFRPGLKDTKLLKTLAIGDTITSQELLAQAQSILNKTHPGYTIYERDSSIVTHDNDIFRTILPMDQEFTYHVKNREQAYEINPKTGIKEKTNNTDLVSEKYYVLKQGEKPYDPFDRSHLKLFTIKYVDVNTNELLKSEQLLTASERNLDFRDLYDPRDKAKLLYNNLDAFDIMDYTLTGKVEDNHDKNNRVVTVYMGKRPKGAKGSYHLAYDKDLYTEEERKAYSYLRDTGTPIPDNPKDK
test-summary: S. pyogenes streptokinase expression inhibitors, potency, dose response, plasminogen activation absorbance, OD405 (AID 1914);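 further: secreted streptokinase activity via plasminogen activation per viability signal from cell pellet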
Assay type: functional, Streptococcus pyogenes M1 GAS
Active and inactive are the calls of the source.

{"mol": "Cc1c(Cl)cccc1N=C(S)NCCC(c1ccccc1)c1ccccc1", "system-name": "Streptokinase A (Streptococcus pyogenes serotype M1, UniProt P10520)", "EC50": "3.76 µM (active)"}
{"mol": "CC1CCN(c2nc(CN3CCCCC3)nc3scc(-c4ccccc4)c23)CC1", "system-name": "Streptokinase A (Streptococcus pyogenes serotype M1, UniProt P10520)", "EC50": "19.1 µM (inconclusive)"}
{"mol": "COc1ccc(/C=N\\NC(=O)c2cc(O)c(O)c(O)c2)cc1COc1ccc(C(=O)OCC(C)C)cc1", "system-name": "Streptokinase A (Streptococcus pyogenes serotype M1, UniProt P10520)", "EC50": "> 150 µM (not active)"}
{"mol": "CSc1nc2nccc(-c3ccc(-c4ccccc4)cc3)n2n1", "system-name": "Streptokinase A (Streptococcus pyogenes serotype M1, UniProt P10520)", "EC50": "> 150 µM (not active)"}
{"mol": "Cc1ccc(CNC(=O)c2ccc([N+](=O)[O-])o2)cc1", "system-name": "Streptokinase A (Streptococcus pyogenes serotype M1, UniProt P10520)", "EC50": "8.63 µM (active)"}
